- assay_details: qHTS for Inhibitors of human tyrosyl-DNA phosphodiesterase 1 (TDP1): qHTS in cells in presence of CPT; further: nearly all actives have a fitted effect of over 55% in size
- stated_conditions: chicken DT40 Tdp1-/-;hTDP1 cells + 20 nM CPT, ATP luminescence, 48 h; series mostly up to 46.2 µM
- Protocol: Human tyrosyl-DNA phosphodiesterase 1 (TDP1) is a novel repair gene, and we propose to use it as a new target for anticancer drug development. […] For the primary screen, Tdp1-/-;hTDP1 cells will be exposed to small molecules in the presence or absence of CPT, and their growth kinetics will be evaluated after 48 hours by measuring ATP activity. […] The hit compounds will then be evaluated in the presence or absence of CPT using Tdp1-/- cells. […]
Hit rate of the full screen: of about 420,000 compounds, about 50,000 (12%) were called active. Not shown: some 26% with an inconclusive outcome. The call rests on the fitted dose curve; in most records, active means well fitted inhibition curve with a large enough effect; inconclusive means small, poorly fitted or top-dose-only effect; inactive means flat fitted curve, though single readings scatter. The entries come from a sample that favours actives as a whole.
Select the matching outcome among active, inactive

COc1ccnc(Oc2ccccc2)n1    inactive
CCOc1cc(NC(=S)NCc2ccco2)c(OCC)cc1NC(=O)c1ccco1    inactive
Cc1ccc(NC(=O)c2cn3c4c(ccc(Cl)c4c2=O)OC(C)C3)cc1C (stereo not drawn)    inactive
CC(C)(C)c1ccc(C(=O)NNC(=O)Cc2ccccc2)cc1    inactive
CC(CN1CCOCC1)OC(=O)c1ccc(Cl)cc1Cl (stereo not drawn)    inactive

Problem: // param item: Cc1cnc(C(=O)Oc2cccc(Cl)c2Cl)cn1 ; yields the recorded call
Result: inactive

Problem: And then Cc1csc(=O)n1CCC(=O)OCC(=O)Nc1ccc(N2CCOCC2)cc1 , what is it?
Result: inactive

Problem: And then O=C(OC12CC3CC(CC(C3)C1)C2)c1ccc(NCc2cc(O)ccc2O)cc1 , what is it?
Result: active

Problem: And then N[C@H]1CN(c2c(F)cc3c(=O)c(C(=O)O)cn(C4C[C@H]4F)c3c2Cl)CC12CC2 (stereo partly drawn) , what is it?
Result: inactive

Problem: And then CCOC(=O)C1(C)CCCN(C(=O)c2ccc(N(C)C)cc2)C1 (stereo not drawn) , what is it?
Result: inactive

Problem: And then CC(=O)Nc1c2c(nn1-c1ccc(C)cc1C)CS(=O)C2 (stereo not drawn) , what is it?
Result: inactive

Problem: And then Cc1ccc(CC2CC(=O)N(c3nc(C)cc(C)n3)C2=O)cc1 (stereo not drawn) , what is it?
Result: inactive

Problem: And then Cc1csc2nc(COC(=O)c3cccc(N(C)C)c3)cc(=O)n12 , what is it?
Result: inactive

Problem: And then COc1ccc(S(=O)(=O)N(C)C[C@@H]2Oc3ccc(NS(=O)(=O)c4cn(C)cn4)cc3C(=O)N([C@@H](C)CO)C[C@@H]2C)cc1 , what is it?
Result: inactive

Problem: And then COc1cc(C(=O)N2CCOCC2)cc(OC)c1OC , what is it?
Result: inactive

Problem: And then O=C(Nc1cccc2cccnc12)c1cccc2c(Br)cccc12 , what is it?
Result: inactive

Problem: And then COc1cccc(CNC(=O)C(NS(=O)(=O)c2ccc3nc(C)sc3c2)C(C)C)c1 (stereo not drawn) , what is it?
Result: inactive

Problem: And then CCOc1cc(NC(=S)NCCCOC)c(OCC)cc1NC(=O)c1ccco1 , what is it?
Result: inactive

----------
- assay_details: qHTS for Inhibitors of human tyrosyl-DNA phosphodiesterase 1 (TDP1): qHTS in cells in presence of CPT; further: nearly all actives have a fitted effect of over 55% in size
- stated_conditions: chicken DT40 Tdp1-/-;hTDP1 cells + 20 nM CPT, ATP luminescence, 48 h; series mostly up to 46.2 µM
Among all 420,000 compounds or so, about 50,000 (12%) were called active. About 26% were inconclusive and are not listed. The call rests on the fitted dose curve; in most records, active means well fitted inhibition curve with a large enough effect; inconclusive means small, poorly fitted or top-dose-only effect; inactive means flat fitted curve, though single readings scatter. The entries come from a sample that favours actives as a whole.
Select the matching outcome among class 1 (active), class 0 (inactive)

CCOC(=O)c1sc(NC(=O)c2sc(C)nc2C)nc1C    class 0
COc1ccccc1CNc1ncncc1-c1cccc(NS(C)(=O)=O)c1    class 0
OC[C@@H]1CN(Cc2ccc(Cl)cc2)C[C@H](n2cnc3c(NCc4ccncc4)ncnc32)O1    class 0
CCCC(=O)Nc1cccc(NC(=S)NC(=O)C(C)Oc2ccc(Cl)cc2Cl)c1 (stereo unspecified)    class 0
Clc1ccc(Cn2ncc3c(NCc4cccnc4)ncnc32)cc1    class 1

Consider the additional molecule presented here.
Problem: // param item: COCCNC(=S)N1CCN(C)CC1 ; yields the recorded call
Result: class 0

----------
- assay_details: qHTS for Inhibitors of human tyrosyl-DNA phosphodiesterase 1 (TDP1): qHTS in cells in presence of CPT; further: nearly all actives have a fitted effect of over 55% in size
- stated_conditions: chicken DT40 Tdp1-/-;hTDP1 cells + 20 nM CPT, ATP luminescence, 48 h; series mostly up to 46.2 µM
Screen size: about 420,000 compounds; about 50,000 (12%) were called active. Inconclusive results (about 26%) are left out. The call rests on the fitted dose curve; in most records, active means well fitted inhibition curve with a large enough effect; inconclusive means small, poorly fitted or top-dose-only effect; inactive means flat fitted curve, though single readings scatter. Only a selection was taken, and actives are over-represented in it overall.
Select the matching outcome among 1 (active), 0 (inactive)

// known answers, use as guide
Brc1ccc(/C=N/N2CCN(C3c4ccccc4-c4ccccc43)CC2)s1    0
Cc1ccc(NC(=O)c2oc3ccccc3c2C)c([N+](=O)[O-])c1    0
COc1ccccc1-c1c(C#N)c(N)nc2c1CCC2    0
CCOc1ccc(-c2cc3c(=O)n(CC(=O)NCc4ccc(OC)cc4)ccn3n2)cc1    0
CCCN(CC(=O)Nc1ccccc1C)C(=O)c1ccc2[nH]c3c(c2c1)CC(C)CC3 (stereo not given)    1

Problem: // param item: COc1ccccc1-n1c(SCC(=O)Nc2ccc(Cl)cc2)nc(O)c(Cc2ccccc2)c1=O ; yields the recorded call
Result: 0

Problem: And then COc1cccc(CN(C)C(=O)CC[C@H]2O[C@@H](n3cnc4c(NC(=O)c5ccccc5)ncnc43)[C@H](O)[C@@H]2O)c1 , what is it?
Result: 0

Problem: And then CCOC(=O)N1CCN(CC(=O)c2c(C)[nH]c3ccccc23)CC1 , what is it?
Result: 1

Problem: And then Cc1[nH]c2ccccc2c1C(=O)CN1CCCC(C)C1 (stereo not given) , what is it?
Result: 0

Problem: And then COCCCNC(=O)CN1C(=O)CSc2ccc(S(=O)(=O)N3CCOCC3)cc21 , what is it?
Result: 0

Problem: And then Nc1ccccc1/C=N\N=C/c1ccccc1N , what is it?
Result: 0

Problem: And then O=C(O)C1=C(C(=O)O)C2CCC1C2 , what is it?
Result: 0

Problem: And then CCCN(CC(=O)Nc1ccccc1C)C(=O)c1cc(=O)[nH]c2ccccc12 , what is it?
Result: 0

Problem: And then CCOc1cc(/C=C(/C#N)c2ccc(Cl)cc2)cc(Cl)c1OCC(=O)O , what is it?
Result: 0

Problem: And then COc1ccc2c(c1)c1ncn(Cc3ccccn3)c(=O)c1n2C , what is it?
Result: 0

Problem: And then CCCN(CC(=O)Nc1ccccc1C)C(=O)c1ccc(OCC(=O)N2CCOCC2)c(OCC)c1 , what is it?
Result: 0

Problem: And then O=C(N[C@H]1C/C=C\C(c2ccc(F)cc2)N(Cc2ccccc2)C(=O)C1)OCC1c2ccccc2-c2ccccc21 (stereo not given in full) , what is it?
Result: 1

Problem: And then COc1cccc(NC(=O)N(C)C[C@@H]2Oc3ncc(Br)cc3C(=O)N([C@@H](C)CO)C[C@H]2C)c1 , what is it?
Result: 0

Problem: And then Nc1ncnc2c1ncn2[C@@H]1O[C@H](CNC(=O)[C@H](N)Cc2cccnc2)[C@@H](O)[C@H]1O , what is it?
Result: 0

Problem: And then O=C(COC(=O)CNC(=O)C1CCCCC1)Nc1cccc(F)c1 , what is it?
Result: 0

Problem: And then CCCOc1ccc(C(=O)CCC(=O)OC(C)C(=O)Nc2ccc(NC(C)=O)cc2)cc1 (stereo not given) , what is it?
Result: 0

Problem: And then Cc1[nH]c2ccccc2c1C(=O)CSCC(=O)O , what is it?
Result: 0

Problem: And then CC(C)CCNC(=O)c1cccnc1Sc1ccccc1 , what is it?
Result: 0

Problem: And then CCCCN1C(=O)C(CC(=O)NCc2cccs2)CC(C(=O)N2CCCCCC2)=C1C (stereo not given) , what is it?
Result: 0

Problem: And then Cc1ccc2c(C(=O)CN3CCCC3)c(C)[nH]c2c1 , what is it?
Result: 0

Problem: And then CCCCn1c(N)c(N(CCOC)C(=O)COc2c(C)cccc2C)c(=O)[nH]c1=O , what is it?
Result: 0

Problem: And then CCCOc1ccc(C(=O)NCCc2ccccc2)cc1 , what is it?
Result: 0

----------
- assay_details: qHTS for Inhibitors of human tyrosyl-DNA phosphodiesterase 1 (TDP1): qHTS in cells in presence of CPT; further: nearly all actives have a fitted effect of over 55% in size
- stated_conditions: chicken DT40 Tdp1-/-;hTDP1 cells + 20 nM CPT, ATP luminescence, 48 h; series mostly up to 46.2 µM
Hit rate of the full screen: of about 420,000 compounds, about 50,000 (12%) were called active. About 26% were inconclusive and are not listed. The call rests on the fitted dose curve; in most records, active means well fitted inhibition curve with a large enough effect; inconclusive means small, poorly fitted or top-dose-only effect; inactive means flat fitted curve, though single readings scatter. The list comes from a sample in which actives are over-represented; it also holds close analogues and randomly drawn compounds.
Select the matching outcome among 1 for active, -1 for inactive

// known answers, use as guide
CN(Cc1ccccc1)C(=O)c1cn(C)c2ccc(S(=O)(=O)N(C)C3CCCCC3)cc2c1=O    -1
O=C(N/N=C\c1ccc(Br)cc1)c1ccc(Cn2cccn2)o1    -1
O=C(NCc1ccccc1)C1CCN(C(=O)Cc2ccccc2)CC1    -1
Cc1cc(C)cc(NC(=O)Cc2csc(C)n2)c1    -1

Problem: // param item: CC(=O)NCC(=O)N1CCC(n2nccc2NC(=O)CCCc2ccccc2)CC1 ; yields the recorded call
Result: -1

Problem: And then O=C(C1COc2ccccc2O1)N(Cc1cccnc1)c1nc2c(F)cc(F)cc2s1 (stereo not given) , what is it?
Result: -1

Problem: And then O=C(NCc1cccnc1)Nc1ccccc1F , what is it?
Result: -1
